systemTested: biotinylated labeled human GPC3 protein (produced in-house) (human, UniProt P51654 25-559, limits assumed, biotinylated (Dojindo, Cat. No. LK03); sites not stated)
testProtocol: ELISA, biotinylated human GPC3 protein
experimentalEndpoint: OD450 at 0.004 nM

Some entries whose results are on file:
| binder | OD450 at 0.004 nM |
| --- | --- |
| hAb007LH3L1a (antibody, human IgG1, V domains shown, Humanized F3.81.19; VH H3 + VL L1a; expressed as human IgG1) VH: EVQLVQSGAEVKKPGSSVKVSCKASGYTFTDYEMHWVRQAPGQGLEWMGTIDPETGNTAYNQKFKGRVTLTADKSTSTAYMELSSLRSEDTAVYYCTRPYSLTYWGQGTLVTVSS VL: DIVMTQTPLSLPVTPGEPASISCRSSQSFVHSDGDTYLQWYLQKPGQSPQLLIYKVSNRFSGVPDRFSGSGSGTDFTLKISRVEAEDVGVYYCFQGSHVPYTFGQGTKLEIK | 0.088 OD450 |
| hAb006LH3L1b (antibody, human IgG1, V domains shown, Humanized F3.38.7; VH H3 + VL L1b; expressed as human IgG1) VH: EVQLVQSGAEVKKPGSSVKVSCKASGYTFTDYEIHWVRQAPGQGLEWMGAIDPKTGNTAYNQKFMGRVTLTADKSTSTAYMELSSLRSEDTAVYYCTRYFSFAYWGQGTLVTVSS VL: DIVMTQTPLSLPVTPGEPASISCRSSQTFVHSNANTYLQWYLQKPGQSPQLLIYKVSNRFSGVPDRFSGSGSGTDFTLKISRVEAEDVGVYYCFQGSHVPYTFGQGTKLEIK | 0.309 OD450 |
| hAb005LH1L1a (antibody, human IgG1, V domains shown, Humanized F3.54.12; VH H1 + VL L1a; expressed as human IgG1) VH: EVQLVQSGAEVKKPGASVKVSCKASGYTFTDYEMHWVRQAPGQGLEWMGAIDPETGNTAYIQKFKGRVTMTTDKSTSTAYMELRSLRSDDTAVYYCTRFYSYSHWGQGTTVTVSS VL: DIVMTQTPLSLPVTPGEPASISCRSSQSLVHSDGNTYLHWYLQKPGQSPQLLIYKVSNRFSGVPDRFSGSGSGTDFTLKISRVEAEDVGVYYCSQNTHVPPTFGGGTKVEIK | 0.05 OD450 |
| hAb007LH3L1b (antibody, human IgG1, V domains shown, Humanized F3.81.19; VH H3 + VL L1b; expressed as human IgG1) VH: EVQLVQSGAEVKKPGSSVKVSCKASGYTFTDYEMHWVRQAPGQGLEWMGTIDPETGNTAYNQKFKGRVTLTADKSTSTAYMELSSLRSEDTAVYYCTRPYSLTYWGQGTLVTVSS VL: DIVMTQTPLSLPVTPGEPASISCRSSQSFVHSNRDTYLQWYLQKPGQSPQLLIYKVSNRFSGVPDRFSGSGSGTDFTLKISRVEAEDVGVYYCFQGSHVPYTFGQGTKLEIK | 0.112 OD450 |
| hAb001H1aL1b (antibody, human IgG1, V domains shown, Humanized F2.169.2; VH H1a + VL L1b; expressed as human IgG1) VH: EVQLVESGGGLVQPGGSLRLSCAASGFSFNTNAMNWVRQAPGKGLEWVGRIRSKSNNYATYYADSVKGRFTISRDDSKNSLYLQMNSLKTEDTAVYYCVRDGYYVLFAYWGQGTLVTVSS VL: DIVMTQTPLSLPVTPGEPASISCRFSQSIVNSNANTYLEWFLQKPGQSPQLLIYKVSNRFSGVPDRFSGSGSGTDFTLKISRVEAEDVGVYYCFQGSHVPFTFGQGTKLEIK | 0.298 OD450 |
| hAb007LH1L1b (antibody, human IgG1, V domains shown, Humanized F3.81.19; VH H1 + VL L1b; expressed as human IgG1) VH: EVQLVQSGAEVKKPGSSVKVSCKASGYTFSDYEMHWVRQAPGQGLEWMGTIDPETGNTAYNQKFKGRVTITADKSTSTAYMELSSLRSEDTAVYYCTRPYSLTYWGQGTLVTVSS VL: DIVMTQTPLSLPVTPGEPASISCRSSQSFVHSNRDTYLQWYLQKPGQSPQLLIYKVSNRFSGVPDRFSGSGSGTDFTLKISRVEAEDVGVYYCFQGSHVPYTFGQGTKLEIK | 0.137 OD450 |
| hAb006LH2L1a (antibody, human IgG1, V domains shown, Humanized F3.38.7; VH H2 + VL L1a; expressed as human IgG1) VH: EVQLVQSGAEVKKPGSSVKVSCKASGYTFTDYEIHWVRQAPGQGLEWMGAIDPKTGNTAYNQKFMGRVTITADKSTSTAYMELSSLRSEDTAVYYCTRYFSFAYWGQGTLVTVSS VL: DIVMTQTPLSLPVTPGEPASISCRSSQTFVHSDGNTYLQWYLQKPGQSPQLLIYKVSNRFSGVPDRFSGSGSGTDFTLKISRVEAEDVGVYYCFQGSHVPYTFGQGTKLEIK | 0.072 OD450 |
| hAb005LH2L1b (antibody, human IgG1, V domains shown, Humanized F3.54.12; VH H2 + VL L1b; expressed as human IgG1) VH: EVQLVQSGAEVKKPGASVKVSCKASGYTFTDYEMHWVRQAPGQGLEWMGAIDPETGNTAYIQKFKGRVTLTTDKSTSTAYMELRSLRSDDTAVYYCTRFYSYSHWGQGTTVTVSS VL: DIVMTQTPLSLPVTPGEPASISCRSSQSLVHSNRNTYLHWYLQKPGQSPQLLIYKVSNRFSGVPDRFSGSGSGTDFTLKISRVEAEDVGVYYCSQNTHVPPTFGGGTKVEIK | 0.194 OD450 |
| hAb003LH1L1a (antibody, human IgG1, V domains shown, Humanized F2.154.1; VH H1 + VL L1a; expressed as human IgG1) VH: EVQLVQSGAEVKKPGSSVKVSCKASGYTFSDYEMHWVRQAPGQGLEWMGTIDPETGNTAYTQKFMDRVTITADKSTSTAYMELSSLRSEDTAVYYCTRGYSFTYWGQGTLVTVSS VL: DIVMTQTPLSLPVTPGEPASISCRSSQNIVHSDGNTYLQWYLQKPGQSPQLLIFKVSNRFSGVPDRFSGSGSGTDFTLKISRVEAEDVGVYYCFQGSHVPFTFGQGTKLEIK | 0.115 OD450 |

Kindly consider the entry below.
Lab note: hAb001H2L1a (antibody, human IgG1, V domains shown, Humanized F2.169.2; VH H2 + VL L1a; expressed as human IgG1) VH: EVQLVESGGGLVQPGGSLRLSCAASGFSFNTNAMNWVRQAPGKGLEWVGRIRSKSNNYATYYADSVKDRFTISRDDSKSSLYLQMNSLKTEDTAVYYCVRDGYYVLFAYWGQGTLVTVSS VL: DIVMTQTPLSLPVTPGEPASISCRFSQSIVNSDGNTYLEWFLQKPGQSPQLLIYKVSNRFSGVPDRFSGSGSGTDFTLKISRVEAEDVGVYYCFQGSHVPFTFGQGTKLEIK gave OD450 at 0.004 nM of 0.141 OD450

Source of measurements: patent US20260116991A1
